target.entity: Metabotropic glutamate receptor 8 (Rattus norvegicus) (UniProt P70579)
Sequence (P70579 whole entry, looked up): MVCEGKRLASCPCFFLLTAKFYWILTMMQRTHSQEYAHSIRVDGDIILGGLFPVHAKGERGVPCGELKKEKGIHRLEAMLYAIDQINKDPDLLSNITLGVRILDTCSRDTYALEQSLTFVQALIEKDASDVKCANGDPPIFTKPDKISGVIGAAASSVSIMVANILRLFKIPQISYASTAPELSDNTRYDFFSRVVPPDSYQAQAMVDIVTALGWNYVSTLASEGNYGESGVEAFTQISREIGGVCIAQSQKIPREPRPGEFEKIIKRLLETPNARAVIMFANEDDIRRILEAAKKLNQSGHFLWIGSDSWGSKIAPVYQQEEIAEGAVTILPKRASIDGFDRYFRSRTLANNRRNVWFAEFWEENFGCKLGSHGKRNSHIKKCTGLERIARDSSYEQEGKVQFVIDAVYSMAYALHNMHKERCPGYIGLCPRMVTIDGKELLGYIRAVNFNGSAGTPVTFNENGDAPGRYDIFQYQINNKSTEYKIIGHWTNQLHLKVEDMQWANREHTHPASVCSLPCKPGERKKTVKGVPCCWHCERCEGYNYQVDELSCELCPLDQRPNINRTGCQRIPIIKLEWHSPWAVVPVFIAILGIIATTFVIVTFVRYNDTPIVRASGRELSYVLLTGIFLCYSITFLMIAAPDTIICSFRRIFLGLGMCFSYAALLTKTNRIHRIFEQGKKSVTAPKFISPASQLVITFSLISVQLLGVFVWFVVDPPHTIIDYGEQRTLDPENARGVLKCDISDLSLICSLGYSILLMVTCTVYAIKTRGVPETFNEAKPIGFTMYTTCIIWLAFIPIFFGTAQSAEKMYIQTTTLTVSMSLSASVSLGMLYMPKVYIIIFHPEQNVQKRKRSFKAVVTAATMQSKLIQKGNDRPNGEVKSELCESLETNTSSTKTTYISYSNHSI
procedure.details: mGluR8 Gi/Go-coupled signaling modulation – cell-based, rat, thallium flux, HTS, primary screen (AID 488969)
setup.conditions: HEK293 rat mGluR8, GIRK thallium flux, FluoZin2; at 10 µM; stronger effect = higher value; submaximal glutamate (EC20) added with thallium
Whole data set: some 110,000 compounds, median “z-score” near -0.1, cut for the highest 2% near 2. The full list was thinned out, with the highest values kept by preference.
Criterion: z-score meeting or surpassing -0.07. Met: Condition met. Not met: Condition not met.

Recorded results for 10 compounds are shown here.
In [3]: df
Out[3]:
                                   compound                             target_entity       answer_label
0  COc1ccc(-c2noc(-c3ccccc3C(=O)Nc3cccnc3)n2)cc1OC  Metabotropic glutamate receptor 8 (Rattus norvegicus) (UniProt P70579)      Condition met
1  COc1cc2c(cc1NC(=O)COc1ccccc1OC)oc1ccccc12  Metabotropic glutamate receptor 8 (Rattus norvegicus) (UniProt P70579)      Condition met
2          CC(C)CC(=O)NS(=O)(=O)c1ccc(N)cc1  Metabotropic glutamate receptor 8 (Rattus norvegicus) (UniProt P70579)      Condition met
3  O=C(CSCC(=O)N1CCN(c2ccccc2)CC1)Nc1nc(-c2ccc(Cl)s2)cs1  Metabotropic glutamate receptor 8 (Rattus norvegicus) (UniProt P70579)      Condition met
4  O=C(CSc1ccc2ccccc2c1Br)Nc1cccc(S(=O)(=O)NC2=NCCCCC2)c1  Metabotropic glutamate receptor 8 (Rattus norvegicus) (UniProt P70579)      Condition met
5  Cc1ccc(C)c(OCC(=O)Nc2nc3ccc([N+](=O)[O-])cc3s2)c1  Metabotropic glutamate receptor 8 (Rattus norvegicus) (UniProt P70579)      Condition met
6         C=CCn1c(NC(=O)CC)c(C(=O)OCC)sc1=S  Metabotropic glutamate receptor 8 (Rattus norvegicus) (UniProt P70579)  Condition not met
7  CCN(c1ccc(NC(=O)COC(=O)CCC(=O)c2ccc(F)cc2)cc1)C(C)C  Metabotropic glutamate receptor 8 (Rattus norvegicus) (UniProt P70579)  Condition not met
8  Nn1c(SCC(=O)N2CCN(S(=O)(=O)c3ccc(Cl)cc3)CC2)nnc1-c1cccs1  Metabotropic glutamate receptor 8 (Rattus norvegicus) (UniProt P70579)  Condition not met
9  O=C(CCSCCC(=O)NCc1ccc(F)cc1)NCc1ccc(F)cc1  Metabotropic glutamate receptor 8 (Rattus norvegicus) (UniProt P70579)  Condition not met

Is reported z-score greater than or equal to -0.07 here: CC1CCCN(C(=O)CSCC(=O)Nc2nc(-c3cccs3)cs2)C1 (configuration not stated)
Condition met

Repeat with `CC(C)c1ccc(OCC(=O)Nc2ccc(OC(F)(F)F)cc2)cc1`
Condition not met

Then Cc1cc2nc3c(nc2cc1C)C1(C(=O)N(C)C)CCC3(C)C1(C)C (configuration not stated) ?
Condition not met

* * *

target.entity: Metabotropic glutamate receptor 8 (Rattus norvegicus)
procedure.details: mGluR8 Gi/Go-coupled signaling modulation – cell-based, rat, thallium flux, HTS, primary screen (AID 488969)
setup.conditions: HEK293 rat mGluR8, GIRK thallium flux, FluoZin2; at 10 µM; stronger effect = higher value; submaximal glutamate (EC20) added with thallium
Whole data set: some 110,000 compounds, median “z-score” near -0.1, cut for the highest 2% near 2. Many of the other results were omitted from the sample, so the highest values are more common in it than they were.
Assignment: determine reported z-score for the given compounds.
Numbers only.

These recorded examples may help you get a feel for the data.
>>> print(df.to_string())
                                   compound                             target_entity  observation_type  experimental_value
0  CCN(CC)CCN(Cc1cc2cc(C)ccc2[nH]c1=O)C(=S)NCc1ccco1  Metabotropic glutamate receptor 8 (Rattus norvegicus)           z-score               0.381
1               O=C(Nc1ccc(Cl)cc1)NC1CCCCC1  Metabotropic glutamate receptor 8 (Rattus norvegicus)           z-score               0.269

For each listed entry, give its z-score.
1. CC(C)OC(=O)/C(=C\C=C\c1ccccc1)NC(=O)c1ccccc1
2. O=C(CSC1=NS(=O)(=O)c2ccccc21)Nc1ccccc1
3. CC(C)OC(=O)/C(=C/c1cccnc1)NC(=O)c1ccccc1
4. CCOC(=O)/C(=C\Nc1ccc(OC(F)(F)F)cc1)Sc1ncc(C(F)(F)F)cc1Cl
5. O=C(N/N=C\c1cc(Br)cs1)C1COc2ccccc2O1 (configuration not stated)
6. c1ccc(-c2noc(CSc3nnnn3-c3ccccc3)n2)cc1
7. Cc1nc2ccccn2c1-c1nnco1

[-0.143, -0.326, 3.22, -0.436, 2.32, 2.18, 0.116]

* * *

target.entity: Metabotropic glutamate receptor 8 (Rattus norvegicus) (UniProt P70579)
procedure.details: mGluR8 Gi/Go-coupled signaling modulation – cell-based, rat, thallium flux, HTS, primary screen (AID 488969)
setup.conditions: HEK293 rat mGluR8, GIRK thallium flux, FluoZin2; at 10 µM; stronger effect = higher value; submaximal glutamate (EC20) added with thallium
In all, about 110,000 compounds were measured (“z-score”: median about -0.1, highest 2% from about 2 on). For the sample, the highest values were picked, then their nearest neighbours and some compounds at random.
observation.type: z-score
Give bare numbers.

>>> df
                                 compound                             target_entity  observation_type  experimental_value
0  Cc1noc(C)c1S(=O)(=O)N1CCN(c2ccccc2)CC1  Metabotropic glutamate receptor 8 (Rattus norvegicus) (UniProt P70579)           z-score              -0.073

Would you be so kind as to report z-score for each listed record?
1. Cc1nc(C)c(C(=O)N/N=C/c2cn(C)c3ccccc23)s1
2. O=C(Nc1ccc(N2CCOCC2)cc1N1CCOCC1)c1cccs1
3. CC(C)CCn1c(Oc2ccc(Cl)cc2)nc2c1c(=O)n(C)c(=O)n2C
4. CC(C)CCn1c(Oc2ccccc2Cl)nc2c1c(=O)n(C)c(=O)n2C
5. Clc1cccc(/C=N/Nc2nc(Cl)nc3ccccc23)c1
6. CC1=C(C(=O)OCC2CCCO2)C(c2ccc(C)o2)C2=C(CC(c3ccc(N(C)C)cc3)CC2=O)N1 (stereo not given)

0.0943
-0.508
-0.037
-0.1
-0.0962
-0.22

* * *

Provide the reported z-score of each item.
target.entity: Metabotropic glutamate receptor 8 (Rattus norvegicus) (UniProt P70579)
procedure.details: mGluR8 Gi/Go-coupled signaling modulation – cell-based, rat, thallium flux, HTS, primary screen (AID 488969)
setup.conditions: HEK293 rat mGluR8, GIRK thallium flux, FluoZin2; at 10 µM; stronger effect = higher value; submaximal glutamate (EC20) added with thallium
Over roughly 110,000 compounds, “z-score” has its median near -0.1; the highest 2% begin near 2. Many of the other results were omitted from the sample, so the highest values are more common in it than they were.
Numbers only.

                                   compound                             target_entity  experimental_value
0   COc1ccccc1N1CCN(CC(=O)Nc2cc(F)ccc2C)CC1  Metabotropic glutamate receptor 8 (Rattus norvegicus) (UniProt P70579)              0.0403
1  COc1ccc(C2SCC(=O)N2CC23CC4CC(CC(C4)C2)C3)cc1 (centres undefined)  Metabotropic glutamate receptor 8 (Rattus norvegicus) (UniProt P70579)               -0.23
2             COC(=O)c1c(NC(C)=O)sc2c1CCCC2  Metabotropic glutamate receptor 8 (Rattus norvegicus) (UniProt P70579)              -0.117

Read the next record carefully.
Given the entry `O=C(NCc1ccco1)c1cccc(S(=O)(=O)N2CCc3ccccc32)c1` , report its measured z-score.
-0.341

* * *

target.entity: Metabotropic glutamate receptor 8 (Rattus norvegicus) (UniProt P70579)
procedure.details: mGluR8 Gi/Go-coupled signaling modulation – cell-based, rat, thallium flux, HTS, primary screen (AID 488969)
setup.conditions: HEK293 rat mGluR8, GIRK (G protein-gated inwardly rectifying potassium channel) thallium flux, FluoZin2; at 10 µM; stronger effect = higher value; submaximal glutamate (EC20) added with thallium
Over roughly 110,000 compounds, “z-score” has its median near -0.1; the highest 2% begin near 2. Many of the other results were omitted from the sample, so the highest values are more common in it than they were. The source made the active and inactive calls.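 Rule for the calls: active = z-score in the third read window above 3 or below -3; inactive = the rest.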
observation.type: z-score

Examples from the recorded data:
>>> df
                                   compound  experimental_value
0    O=C(O)Cn1c(SCc2cccc3ccccc23)nc2ccccc21                1.11
1  Fc1ccc(-c2cc(-c3nnc4n3CCCCC4)c3ccccc3n2)cc1              -0.316
2  COc1ccccc1-n1c(SCC(=O)N2CCc3ccccc32)nc2c(c1=O)SCC2              -0.558
3  COc1ccsc1C(=O)N1CCN(Cc2ccc3c(c2)OCO3)CC1             -0.0804

Please give z-score for each item listed below.
1. COc1ccc(/C(C)=N/NC(=S)NCc2ccco2)cc1
2. CN1/C(=C\C(=S)NC(=O)c2cccc(Br)c2)C(C)(C)c2ccccc21
3. O=C(O)CCn1c(SCc2ccccc2)nc2ccccc21
4. CC1(C)CC(=O)C=C(NCc2ccco2)C1
5. Cc1cccc(-n2c(-c3csc(C)c3)n[nH]c2=S)c1
6. CCOc1ccc(C(F)(F)F)cc1NC(=O)COc1ccc(C(F)(F)F)cc1[N+](=O)[O-]
7. COc1ccc(NC(=S)NCc2ccco2)cc1
8. Cc1cccc(NC(=O)c2cc3ccccc3o2)c1

1. 4.34 (active)
2. -0.0589
3. -0.0963
4. -0.0748
5. 0.189
6. -0.107
7. -0.0213
8. -1.37

For each listed entry, give its z-score.
1. Clc1ccc(-c2cc(-c3nnc4n3CCCCC4)c3ccccc3n2)cc1
2. C=CCNC(=S)N/N=C(\C)c1cc(OC)c(OC)c(OC)c1
3. COc1cc(C2C(C(=O)N3CCOCC3)=C(C)NC3=C2C(=O)CCC3)ccc1OC(C)=O (stereo not given)
4. C/C(=N\NC(=O)COc1ccccc1F)c1cc2ccccc2o1
5. O=C(N/N=C/c1ccc(O)cc1)/C(=C/c1ccccc1)CCO
6. C=CCNC(=S)N/N=C(\C)c1ccc(OC)cc1

1. 2.08
2. -0.183
3. 0.401
4. -0.0133
5. -0.0513
6. 2.03
